Tested on: PPARg DBDmut IVT, anti-PPARg (DBD mutation: PPARg1 K132A/R137A, NR concentration 270 nM)
Experiment: PBM binding z-score (relative to random genomic background probes); higher = stronger binding; sequences stand for … in GC…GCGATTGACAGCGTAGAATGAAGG
I'd appreciate it if you could supply PBM binding z-score values for the items below.
Give bare numbers.

# example entries with known answers
# sequence-data, PBM binding z-score
measured = [
    ("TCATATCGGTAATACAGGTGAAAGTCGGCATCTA", 0.852),
    ("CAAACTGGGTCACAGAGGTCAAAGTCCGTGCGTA", 4.1),
    ("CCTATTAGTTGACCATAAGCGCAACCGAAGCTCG", 0.388),
]

Value sought for every listed sequence: PBM binding z-score.
1. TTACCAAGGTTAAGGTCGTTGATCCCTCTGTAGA
2. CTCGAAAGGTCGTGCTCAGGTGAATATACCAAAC
3. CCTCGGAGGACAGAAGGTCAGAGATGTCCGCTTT

Response:
1. 0.342
2. 0.68
3. -1.27
